Just for reference, patent US20110311550A1 is where these values come from.

- Measured on: HCV E1E2 antigen, isolate UKN4.21.16 (hepatitis C virus, isolate UKN4.21.16)
- Protocol: ELISA, Fab on E1E2 antigen
Here, each record is paired with measured OD 450 nm data.
Assay endpoint: OD 450 nm (OD 450 nm)

[
  {
    "Binder": "Fab N4 (Fab, V domains shown) VH: VQLLEQSGPEVKKPGDSLRISCKMSGDSLVTTWIGWVRQKPGQGLEWMGIINPGDSSTNIYPGDSATRYGPSFQGQVTISIDKSTSTAYLQWNNVKASDTGIYYCARHVPVPISGTFLWREREMHDFGYFDDWGQGTLVIVSS VL: ELTLTQSPGTLSLSPGERATLSCRASQSVSNNYLAWYQQKPGQAPRLLIYGASSRATGIPDRFSGSGSGTGFTLIISRLEPEDFAVYYCQQYGSSSITFGQGTRLEIKR",
    "Assay endpoint": "OD 450 nm",
    "Recorded value": 1.49
  },
  {
    "Binder": "Fab U1 (Fab, V domains shown) VH: VQLLEQSGPEVKRPGTSVKMSCKISGGASITQAMSWVRQAPGQGLEWMGGITPIFGTVNYAQKILGRVTITADEDTVSLELSSLKSEDTAVYYCAREVNLKTWNLAHPNVFDVWGQGTMLTVSS VL: ELTQSPSSLSASVGDRVTITCRASQSISSFLNWYQQKPGKAPKLLIYAASSLQSGVPPRFSGSGSGTDFTLTISSLQPEDFATYYCQQSYSTPRTFGQGTKLEIKR",
    "Assay endpoint": "OD 450 nm",
    "Recorded value": 0
  },
  {
    "Binder": "Fab P1a (Fab, V domains shown) VH: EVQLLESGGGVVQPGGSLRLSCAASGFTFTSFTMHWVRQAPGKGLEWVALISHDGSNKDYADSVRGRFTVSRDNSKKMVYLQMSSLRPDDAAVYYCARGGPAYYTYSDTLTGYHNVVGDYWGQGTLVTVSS VL: ELTQSPGTLSLSPGERATLSCRTSQSVSSTYLAWYQQKPGQPPRLLIYGASNRAPGIPDRFSGSGSGTDFTLTISRLEPEDFAVYYCQQYGDSPPITFGQGTRLDIKR",
    "Assay endpoint": "OD 450 nm",
    "Recorded value": 0.04
  }
]
